Hey, just so you know, these numbers are from ChEMBL document CHEMBL3991601.

Target: Serine/threonine-protein kinase D2 (Homo sapiens); note: in the data inactive means no Kd found up to 30 µM
Sequence (Q9BZL6 whole entry): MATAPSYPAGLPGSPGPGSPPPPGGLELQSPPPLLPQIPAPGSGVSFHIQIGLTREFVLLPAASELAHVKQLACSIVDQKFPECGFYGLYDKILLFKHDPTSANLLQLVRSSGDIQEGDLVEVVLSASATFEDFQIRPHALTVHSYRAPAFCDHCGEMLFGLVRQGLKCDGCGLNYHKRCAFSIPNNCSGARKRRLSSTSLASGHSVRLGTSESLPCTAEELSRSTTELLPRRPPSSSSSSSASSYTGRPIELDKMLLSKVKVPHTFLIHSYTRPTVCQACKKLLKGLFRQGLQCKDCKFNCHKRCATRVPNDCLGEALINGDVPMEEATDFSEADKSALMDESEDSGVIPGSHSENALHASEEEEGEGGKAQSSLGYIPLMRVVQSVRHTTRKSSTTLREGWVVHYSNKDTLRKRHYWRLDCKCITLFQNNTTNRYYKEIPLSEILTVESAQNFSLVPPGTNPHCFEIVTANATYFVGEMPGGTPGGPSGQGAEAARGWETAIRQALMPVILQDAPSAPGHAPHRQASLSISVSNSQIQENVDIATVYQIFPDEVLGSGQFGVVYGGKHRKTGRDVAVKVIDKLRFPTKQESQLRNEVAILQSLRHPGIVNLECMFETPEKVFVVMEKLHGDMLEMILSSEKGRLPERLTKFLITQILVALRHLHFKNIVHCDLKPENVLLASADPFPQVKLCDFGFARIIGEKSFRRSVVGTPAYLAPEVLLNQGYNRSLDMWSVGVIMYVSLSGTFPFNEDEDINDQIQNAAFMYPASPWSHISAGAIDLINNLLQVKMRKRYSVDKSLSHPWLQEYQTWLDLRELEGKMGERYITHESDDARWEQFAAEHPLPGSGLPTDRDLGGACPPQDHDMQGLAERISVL
Active and inactive are the calls of the source.
Possible outcomes: True = active, False = inactive

INSERT INTO measurements (molecule, discrete_label) VALUES
  ('C=CC(=O)N1CCC[C@H](n2c(=O)n(-c3ccc(Oc4ccccc4)cc3)c3c(N)ncnc32)C1', 'False'),
  ('O=C1NC(=O)[C@@H](c2cn3c4c(cccc24)CCC3)[C@@H]1c1c[nH]c2ccccc12 [TIVANTINIB]', 'False'),
  ('C[C@@H](N)c1ccc(C(=O)Nc2ccnc3[nH]ccc23)cc1', 'True'),
  ('NC1(c2ccc(-c3nc4ccn5c(=O)[nH]nc5c4cc3-c3ccccc3)cc2)CCC1', 'False'),
  ('Cn1cc(-c2cnn3c(N)c(Br)c([C@@H]4CCCNC4)nc23)cn1', 'True'),
  ('CCn1c(C(=O)N(C2CC2)C2CC2)cc2c3c(ncn3C)c(Nc3cc(C)n(C)n3)nc21', 'False'),
  ('CC(=O)c1cnc2ccc(-c3cc(Cl)c(O)c(Cl)c3)nc2c1N[C@H]1CC[C@H](CN(C)C)CC1', 'True'),
  ('COc1ncc(-c2ccc3nccc(-c4ccnnc4)c3c2)cc1NS(=O)(=O)c1ccc(F)cc1F', 'False'),
  ('Cc1cc(Nc2ncc(Cl)c(Nc3ccccc3S(=O)(=O)C(C)C)n2)c(OC(C)C)cc1C1CCNCC1', 'False');
